B1: HDV Ribozyme (parent)
chain: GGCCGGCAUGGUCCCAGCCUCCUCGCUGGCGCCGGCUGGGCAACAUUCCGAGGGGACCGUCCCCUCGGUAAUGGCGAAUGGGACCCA

variants of: B1; experiment: self-cleavage, relative activity (ratio to wild type); higher = more cleavage; co-transcriptional

# Variant Designation, self-cleavage
measured = [
    ("U46G A77C", 0.0875),
    ("C18A U37C", 0.0361),
    ("A16C A78U", 0.256),
    ("C4A G59U", 0.415),
    ("G2U A51C", 0.0528),
    ("U69C G80C", 0.0396),
    ("G6U C58U", 0.617),
    ("G5U G59A", 0.529),
    ("U46A C58G", 0.712),
    ("C18G C63G", 0.199),
    ("U23A U27C", 0.575),
    ("G5A U79G", 0.0923),
    ("C32G C49U", 0.0811),
    ("G31C C85G", 0.341),
    ("G25U G76C", 0.224),
    ("A78U A83C", 0.324),
    ("C33U A77C", 0.298),
    ("U47C G76U", 0.895),
    ("A43G G53A", 0.532),
    ("G35U U72A", 0.172),
    ("C22G U46G", 0.0875),
    ("G5A C63G", 0.0755),
    ("C24A C49G", 0.787),
    ("C26U A77C", 0.883),
    ("G29U C30U", 0.0779),
    ("U23C G81C", 0.249),
    ("G6U G38C", 0.095),
    ("C4G C7U", 0.0234),
    ("A42U U47A", 0.302),
    ("G5A", 0.199),
    ("C14A G50A", 0.736),
    ("C33U G76C", 1.07),
    ("C19G G81U", 0.0997),
    ("G25C C62G", 0.0615),
    ("C61U A87G", 0.933),
    ("C7A G10U", 0.0723),
    ("U46A G81C", 0.312),
    ("G29A G80U", 0.0283),
    ("C18U C61G", 0.53),
    ("C21G A43G", 0.128),
    ("A42C C66A", 0.332),
    ("C62A C75G", 0.0519),
    ("C18U C75A", 0.366),
    ("C24A A87G", 0.7),
    ("C15U U69G", 0.858),
    ("G35C G53C", 0.208),
]
